Target or system: F508delCFTR (Homo sapiens, UniProt P13569, DEL508-508)
Construct: expressed in transfected cells; host or cells: CFBE41o- human lung-derived epithelial cells (CFBE4lo-F508delCFTR-HRP), doxycycline-inducible
Sequence (P13569 with tags, fused parts or gaps DEL508-508): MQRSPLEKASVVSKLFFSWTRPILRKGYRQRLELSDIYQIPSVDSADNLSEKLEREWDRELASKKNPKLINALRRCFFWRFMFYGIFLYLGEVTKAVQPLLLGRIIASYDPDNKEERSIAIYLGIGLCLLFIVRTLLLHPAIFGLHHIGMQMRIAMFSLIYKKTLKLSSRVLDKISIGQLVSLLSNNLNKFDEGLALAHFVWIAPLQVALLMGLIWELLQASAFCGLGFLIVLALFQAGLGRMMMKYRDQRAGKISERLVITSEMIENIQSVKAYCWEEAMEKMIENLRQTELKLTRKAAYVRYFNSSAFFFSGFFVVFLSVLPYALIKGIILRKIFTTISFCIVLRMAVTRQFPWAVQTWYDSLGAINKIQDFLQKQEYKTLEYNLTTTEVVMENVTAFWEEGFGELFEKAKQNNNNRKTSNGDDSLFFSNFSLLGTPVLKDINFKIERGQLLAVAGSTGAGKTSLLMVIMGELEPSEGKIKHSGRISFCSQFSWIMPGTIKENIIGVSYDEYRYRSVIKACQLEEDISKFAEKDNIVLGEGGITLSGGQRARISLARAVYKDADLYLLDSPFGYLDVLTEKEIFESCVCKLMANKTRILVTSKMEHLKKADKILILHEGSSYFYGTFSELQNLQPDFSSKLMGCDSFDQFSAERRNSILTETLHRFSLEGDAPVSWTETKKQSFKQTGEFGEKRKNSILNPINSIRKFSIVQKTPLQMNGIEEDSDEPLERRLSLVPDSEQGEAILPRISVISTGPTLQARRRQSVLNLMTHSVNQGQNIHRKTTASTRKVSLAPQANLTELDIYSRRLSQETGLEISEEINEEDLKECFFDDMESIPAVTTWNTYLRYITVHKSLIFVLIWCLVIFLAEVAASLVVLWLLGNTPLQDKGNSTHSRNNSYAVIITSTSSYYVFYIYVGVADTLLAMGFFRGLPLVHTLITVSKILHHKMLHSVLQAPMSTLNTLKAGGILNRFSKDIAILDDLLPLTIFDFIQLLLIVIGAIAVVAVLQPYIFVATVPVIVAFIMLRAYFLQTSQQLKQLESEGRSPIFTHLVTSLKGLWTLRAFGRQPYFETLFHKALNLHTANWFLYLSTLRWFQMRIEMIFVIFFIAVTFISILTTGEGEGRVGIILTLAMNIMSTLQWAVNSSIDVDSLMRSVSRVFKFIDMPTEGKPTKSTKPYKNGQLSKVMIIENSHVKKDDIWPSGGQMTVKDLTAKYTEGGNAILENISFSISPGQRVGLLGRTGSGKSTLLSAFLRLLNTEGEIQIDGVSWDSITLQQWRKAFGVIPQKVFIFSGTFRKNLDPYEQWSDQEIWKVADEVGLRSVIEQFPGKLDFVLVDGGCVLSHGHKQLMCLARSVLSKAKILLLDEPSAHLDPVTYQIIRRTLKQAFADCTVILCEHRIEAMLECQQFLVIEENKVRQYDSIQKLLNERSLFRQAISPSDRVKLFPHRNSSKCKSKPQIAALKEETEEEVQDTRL
Assay summary: Cell Surface Expression-Horse Radish Peroxidase (CSE-HRP) Assay;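 further: co-corrector and positive control are both the same reference corrector at 2 µM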
Assay type: cell-based
Conditions used: with co-corrector (2 μM of 3-[(2R,4R)-4-({[1-(2,2-difluoro-1,3-benzodioxol-5-yl)cyclopropyl]carbonyl}amino)-7-methoxy-3,4-dihydro-2H-chromen-2-yl]benzoic acid); maximum at any tested concentration, normalized to on-plate positive control
Procedure: Cell Surface Expression-Horse Radish Peroxidase (CSE-HRP) Assay The development was achieved by expressing the F508delCFTR mutation along with a horseradish peroxidase (HRP) in the fourth exofacial loop, and then measuring the HRP activity using luminescence readout from these cells, CFBE4lo-F508delCFTR-HRP, that were incubated overnight with the test corrector compounds, either without or with the co-corrector. […] The raw counts from the experiment were analyzed using Accelrys® Assay Explorer v3.3. […]

>  <Compound>
COc1ccc(C2(C)CCC2)cc1CN[C@H]1[C@H](C(C)(C)C)[C@@H](C(=O)O)N(C(=O)C2CCCCC2)[C@H]1c1ccccc1

>  <Target or system>
F508delCFTR (Homo sapiens, UniProt P13569, DEL508-508)

>  <Maximum % activity (with co-corrector)>
+++ (≥350)

$$$$
>  <Compound>
COc1cc(C(F)(F)F)ccc1CN[C@H]1[C@H](C(C)(C)C)[C@@H](C(=O)O)N(C(=O)OC(C)C)[C@H]1c1ccccc1

>  <Target or system>
F508delCFTR (Homo sapiens, UniProt P13569, DEL508-508)

>  <Maximum % activity (with co-corrector)>
+++ (≥350)

$$$$
>  <Compound>
COc1cccc([C@H]2[C@@H](Nc3cccc(OC(F)F)n3)[C@H](C(C)(C)C)[C@@H](C(=O)O)N2C(=O)C2(C)CCCOC2)n1 (mixture of isomers)

>  <Target or system>
F508delCFTR (Homo sapiens, UniProt P13569, DEL508-508)

>  <Maximum % activity (with co-corrector)>
++ (≥150 and <350)

$$$$
>  <Compound>
COc1ncc(-c2ccc(C)cc2)cc1CN[C@H]1[C@H](C(C)(C)C)[C@@H](C(=O)O)N(C(=O)C2CCCCC2)[C@H]1c1cccnc1N(C)C

>  <Target or system>
F508delCFTR (Homo sapiens, UniProt P13569, DEL508-508)

>  <Maximum % activity (with co-corrector)>
+++ (≥350)

$$$$
>  <Compound>
COc1cccc(-c2cnc(OC)c(CN[C@H]3[C@H](C(C)(C)C)[C@@H](C(=O)O)N(C(=O)C4CCCCC4)[C@H]3c3ccccc3)c2)c1

>  <Target or system>
F508delCFTR (Homo sapiens, UniProt P13569, DEL508-508)

>  <Maximum % activity (with co-corrector)>
+++ (≥350)

$$$$
>  <Compound>
COc1ncc(C(F)(F)F)cc1CN[C@H]1[C@H](C(C)(C)C)[C@@H](C(=O)O)N(C(=O)[C@@H]2CCCO2)[C@H]1c1cccnc1N(C)C

>  <Target or system>
F508delCFTR (Homo sapiens, UniProt P13569, DEL508-508)

>  <Maximum % activity (with co-corrector)>
++ (≥150 and <350)

$$$$
>  <Compound>
Cc1cc(C(F)(F)F)cc(N[C@@H]2[C@@H](C(C)(C)C)[C@H](C(=O)NS(=O)(=O)C3CC3)N(C(=O)C3CCCCC3)[C@@H]2c2ccccc2)n1 (racemic)

>  <Target or system>
F508delCFTR (Homo sapiens, UniProt P13569, DEL508-508)

>  <Maximum % activity (with co-corrector)>
++ (≥150 and <350)

$$$$
>  <Compound>
COc1ncc(C(F)(F)F)cc1N[C@H]1[C@H](C(C)(C)C)[C@@H](C(=O)O)N(C(=O)C2CCCC(F)(F)C2)[C@H]1c1cccnc1N(C)C (stereo partly shown)

>  <Target or system>
F508delCFTR (Homo sapiens, UniProt P13569, DEL508-508)

>  <Maximum % activity (with co-corrector)>
++ (≥150 and <350)

$$$$
>  <Compound>
COc1ncc(-c2ccc(F)cc2F)cc1CN[C@H]1[C@H](C(C)(C)C)[C@@H](C(=O)O)N(C(=O)C2CCCCC2)[C@H]1c1ccccc1

>  <Target or system>
F508delCFTR (Homo sapiens, UniProt P13569, DEL508-508)

>  <Maximum % activity (with co-corrector)>
+++ (≥350)

$$$$
>  <Compound>
COCC1(c2ccc(OC)c(CN[C@H]3[C@H](C(C)(C)C)[C@@H](C(=O)O)N(C(=O)C4CCCCC4)[C@H]3c3ccccc3)c2)CC1

>  <Target or system>
F508delCFTR (Homo sapiens, UniProt P13569, DEL508-508)

>  <Maximum % activity (with co-corrector)>
+++ (≥350)

$$$$
>  <Compound>
COc1ccc(C(C)(C)C)cc1CN[C@H]1[C@H](C(C)(C)C)[C@@H](C(=O)O)N(C(=O)c2cnn(C(C)(C)C)c2C(F)(F)F)[C@H]1c1ccccc1

>  <Target or system>
F508delCFTR (Homo sapiens, UniProt P13569, DEL508-508)

>  <Maximum % activity (with co-corrector)>
+++ (≥350)

$$$$
>  <Compound>
COc1ccc(SC(F)(F)F)cc1CN[C@H]1[C@H](C(C)(C)C)[C@@H](C(=O)O)N(C(=O)C2CCCCC2)[C@H]1c1cccnc1OC

>  <Target or system>
F508delCFTR (Homo sapiens, UniProt P13569, DEL508-508)

>  <Maximum % activity (with co-corrector)>
+++ (≥350)

$$$$
>  <Compound>
COc1ncc(C2CCC2)cc1CN[C@H]1[C@H](C(C)(C)C)[C@@H](C(=O)O)N(C(=O)[C@H]2CCCCO2)[C@H]1c1ccccc1F

>  <Target or system>
F508delCFTR (Homo sapiens, UniProt P13569, DEL508-508)

>  <Maximum % activity (with co-corrector)>
+++ (≥350)

$$$$
>  <Compound>
COc1ccc(C(C)(C)C)cc1CN[C@H]1[C@H](C(C)(C)C)[C@@H](C(=O)O)N(C(=O)C2CC(F)(F)C2)[C@H]1c1ccccc1

>  <Target or system>
F508delCFTR (Homo sapiens, UniProt P13569, DEL508-508)

>  <Maximum % activity (with co-corrector)>
+++ (≥350)

$$$$
>  <Compound>
COc1ncc(C(F)(F)F)cc1CN[C@H]1[C@H](C(C)(C)C)[C@@H](C(=O)O)N(C(=O)OC(C)C)[C@H]1c1cccnc1N(C)C

>  <Target or system>
F508delCFTR (Homo sapiens, UniProt P13569, DEL508-508)

>  <Maximum % activity (with co-corrector)>
+++ (≥350)

$$$$

###

Target or system: F508delCFTR (Homo sapiens, UniProt P13569, DEL508-508)
Construct: expressed in transfected cells; host or cells: CFBE41o- human lung-derived epithelial cells (CFBE4lo-F508delCFTR-HRP), doxycycline-inducible
Assay summary: Cell Surface Expression-Horse Radish Peroxidase (CSE-HRP) Assay;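 further: co-corrector and positive control are both the same reference corrector at 2 µM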
Assay type: cell-based
Conditions used: with co-corrector (2 μM); maximum at any tested concentration, normalized to on-plate positive control
Endpoint: Maximum % activity (with co-corrector)

>  <Compound>
CC(C)(C)[C@@H]1[C@@H](NCc2cc(Br)ccc2C#N)[C@@H](c2ccccc2)N(C(=O)C2CCCCC2)[C@H]1C(=O)O (racemic) [III-109]

>  <Endpoint>
Maximum % activity (with co-corrector)

>  <Measured>
++ (≥150 and <350)

$$$$
>  <Compound>
COc1nc(C(C)(C)C)ccc1CN[C@H]1[C@H](C(C)(C)C)[C@@H](C(=O)O)N(C(=O)C2CCCCC2)[C@H]1c1ccccc1C(C)C [Example I-187]

>  <Endpoint>
Maximum % activity (with co-corrector)

>  <Measured>
+++ (≥350)

$$$$
>  <Compound>
COc1ccc(C(C)(C)C)cc1CN[C@H]1[C@H](C(C)(C)C)[C@@H](C(=O)O)N(C(=O)C2CCCCC2)[C@H]1c1ccccc1F [Example 24]

>  <Endpoint>
Maximum % activity (with co-corrector)

>  <Measured>
+++ (≥350)

$$$$
>  <Compound>
CC(C)(C)[C@H]1[C@H](NCc2cc(Cl)c3c(c2)OCO3)[C@H](c2ccccc2)N(C(=O)C2CCCCC2)[C@@H]1C(=O)O [III-140]

>  <Endpoint>
Maximum % activity (with co-corrector)

>  <Measured>
++ (≥150 and <350)

$$$$
>  <Compound>
COc1ccc(C(C)(C)C)cc1CN[C@H]1[C@H](C(C)(C)C)[C@@H](C(=O)O)N(C(=O)C2C3C2[C@H]2CC[C@@H]3C2)[C@H]1c1ccccc1 (stereo partly shown) [III-192]

>  <Endpoint>
Maximum % activity (with co-corrector)

>  <Measured>
+++ (≥350)

$$$$
>  <Compound>
COc1cc(OC)nc(N[C@@H]2[C@@H](C(C)(C)C)[C@H](C(=O)O)N(C(=O)C3CCCCC3)[C@@H]2c2ccccc2)n1 (racemic) [Example I-1]

>  <Endpoint>
Maximum % activity (with co-corrector)

>  <Measured>
+++ (≥350)

$$$$
>  <Compound>
Cc1cc(C(F)(F)F)cc(N[C@H]2[C@H](C(C)(C)C)[C@@H](C(=O)O)N(C(=O)C3C4CCCC43)[C@H]2c2cccnc2N(C)C)n1 (stereo partly shown) [Example I-222]

>  <Endpoint>
Maximum % activity (with co-corrector)

>  <Measured>
++ (≥150 and <350)

$$$$
>  <Compound>
COc1ccc(C(C)(C)C)cc1CN[C@H]1[C@H](C(C)(C)C)[C@@H](C(=O)O)N(C(=O)[C@@H]2CCCCO2)[C@H]1c1ccccc1OC(F)F [Example 59]

>  <Endpoint>
Maximum % activity (with co-corrector)

>  <Measured>
+++ (≥350)

$$$$
>  <Compound>
CC(C)(C)[C@H]1[C@H](NCc2ccc(OC(F)(F)F)c(F)c2)[C@H](c2ccccc2)N(C(=O)C2CCCCC2)[C@@H]1C(=O)O [III-128]

>  <Endpoint>
Maximum % activity (with co-corrector)

>  <Measured>
++ (≥150 and <350)

$$$$
>  <Compound>
COc1ccc(C(F)(F)F)cc1CN[C@H]1[C@H](C23CC(C2)C3)[C@@H](C(=O)O)N(C(=O)C2CCCCC2)[C@H]1c1ccccc1 [Example 56]

>  <Endpoint>
Maximum % activity (with co-corrector)

>  <Measured>
+++ (≥350)

$$$$
>  <Compound>
COc1ccc(-c2sc(C)nc2C)cc1CN[C@H]1[C@H](C(C)(C)C)[C@@H](C(=O)O)N(C(=O)C2CCCCC2)[C@H]1c1ccccc1 [Example I-127]

>  <Endpoint>
Maximum % activity (with co-corrector)

>  <Measured>
+++ (≥350)

$$$$
>  <Compound>
COc1ccc(CC2CCCCC2)cc1CN[C@H]1[C@H](C(C)(C)OC)[C@@H](C(=O)O)N(C(=O)C2CCCCC2)[C@H]1c1ccccc1 [Example I-118]

>  <Endpoint>
Maximum % activity (with co-corrector)

>  <Measured>
+++ (≥350)

$$$$
